- Tested on: MOLT-4 leukemia
- experiment_description: NCI tumour cell line growth inhibition, 48 h
# TGI annotations
outcome_measure: TGI

C=C1C(=O)O[C@H]2C3C(=C(C)CC[C@@H]12)C(=O)[C@@H]1OC31C (stereo partly specified) : 3.27 µM
CCCCCCCCCCCCCCCCNc1ccn(C2CC(OP(=O)(O)OCC3OC(n4cc(CC)c(=O)[nH]c4=O)CC3O)C(CO)O2)c(=O)n1 (stereo unspecified) : 41.3 µM
Cc1ccc(SCC(O)=C2C(=O)CCCC2=O)cc1 : > 100 µM
C[n+]1c(-c2ccc(/C=N/Nc3ccnc(N/N=C/c4ccc(-c5cn6ccccc6[n+]5C)cc4)n3)cc2)cn2ccccc21 : > 100 µM
O=C(O)CCCc1ccc2c(c1)CC1(C2)Cc2ccc(CCCC(=O)O)cc2C1 : > 100 µM
O=C(O)c1ccc2cccnc2c1O : > 70.3 µM

* * *

- Test system: KM20L2 colon
- experiment_description: NCI tumour cell line growth inhibition, 48 h
# TGI annotations
outcome_measure: TGI

O=C(Nc1ccccc1C(=O)O)C(=O)C(C(=O)c1ccccc1-c1ccccc1)C1OC(=O)c2ccccc21 (centres undefined) : 44 µM
O=C1OC2C=CC1C1(CCOC1=O)C2 (centres undefined) : > 100 µM
COc1cc(C(=O)C/C(CCC(=O)Nc2ccc(Cl)cc2Cl)=N/Nc2nnc(C)n2N)ccc1O : > 100 µM
Cc1ccc(SCC(O)=C2C(=O)CCCC2=O)cc1 : > 100 µM

* * *

- Tested on: SNB-19 CNS
- experiment_description: NCI tumour cell line growth inhibition, 48 h
outcome_measure: TGI

CCOC(=O)NC(=O)c1cn(C2OC(CO)C(O)C2O)c(=O)[nH]c1=O (stereo not given) : > 100 µM
CC(=O)Nc1ccc(/C=C(\NC(=O)c2ccccc2)C(=O)NNS(=O)(=O)c2ccc(C)cc2)cc1 : > 100 µM
C[n+]1c(-c2ccc(/C=N/Nc3ccnc(N/N=C/c4ccc(-c5cn6ccccc6[n+]5C)cc4)n3)cc2)cn2ccccc21 : > 100 µM
Cc1nnc2sc(-c3ccc([N+](=O)[O-])o3)nn12 : 35.3 µM
O=S(=O)(/N=C1/SC(=Nc2ccccc2)N(c2ccccc2)/C1=N/S(=O)(=O)c1ccccc1)c1ccccc1 : 96.8 µM
CN(C)c1ccc(N=C(C#N)c2nc(N)nc(N3CCN(c4ccccc4)CC3)n2)cc1 : > 50 µM
CNC(C)Cc1ccc(O)cc1 (stereo not given) : > 100 µM
Cc1ccc([N+](=O)[O-])cc1NC(=O)C(=O)C1CCC2=C(Sc3ccccc3N2)C1=O (stereo not given) : > 100 µM
S=c1[nH]nc(SCc2ccccc2Cl)c2[nH]cnc12 : > 100 µM
C=C1CC(OC)(C(O)C(=O)N[C@H]2OCO[C@H]3C2O[C@H](C[C@H](O)COC)C(C)(C)C3OC)O[C@H](C)[C@@H]1C (stereo not given in full) : > 0.00772 µM

* * *

- Tested on: U251 CNS
- experiment_description: NCI tumour cell line growth inhibition, 48 h
outcome_measure: TGI

O=C(O)Cc1cc(=O)[nH]c2c1C(=O)CCC2 : > 100 µM
O=S(=O)(/N=C1/SC(=Nc2ccccc2)N(c2ccccc2)/C1=N/S(=O)(=O)c1ccccc1)c1ccccc1 : 70.7 µM
O=C(c1ccccc1)c1ccccc1C(=O)c1ccccc1 : > 100 µM
CSc1ccccc1P(CCP(c1ccccc1SC)c1ccccc1SC)c1ccccc1SC : > 100 µM
Cc1ccc2c(=O)c(C(=O)N(CCO)CCO)c[nH]c2n1 : > 100 µM
CC(C)CC(NC(=O)C(COc1ccc([N+](=O)[O-])cc1)Cc1ccccc1)C(=O)Nc1ccccc1 (stereo not drawn) : 28.7 µM
Cc1c(N)nc(C(CC(N)=O)NCC(N)C(N)=O)nc1C(=O)NC(C(=O)NC(C)C(O)C(C)C(=O)NC(C(=O)NCCc1nc(-c2nc(C(=O)NCCCNCCCCN)cs2)cs1)C(C)O)C(OC1OC(CO)C(O)C(O)C1OC1OC(CO)C(O)C(OC(N)=O)C1O)c1cnc[nH]1 (stereo not drawn) : > 10 µM
CC(C)(O)CCC(O)C(C)(O)C1CCC2(O)C3=CC(=O)C4(O)CC(O)C(O)CC4(C)C3CCC12C (stereo not drawn) (tested in a mixture with another compound) : > 100 µM
CCC1OC(/C(C)=C/C(C)/C=C/C2C(C)C2/C=C/C2OC(CC(=O)O)CC(O)C2O)CC=C1C (stereo not drawn) : > 50 µM
COc1cc2c(cc1O)CC[C@@H]1C2CC[C@@]2(C)C1CC[C@@H]2O (stereo partly drawn) : > 62.4 µM
COc1cc2c3c(c1OC)Oc1ccc(cc1)CC1c4c(cc(OC)c(OC)c4Oc4ccc(cc4)CC3N(C)CC2)CCN1C (stereo not drawn) : 30.8 µM
COc1ccc(/C=C/c2cnc3ccccc3n2)cc1OC : > 100 µM
Cc1cc(O)c2c(c1)C(=O)C(c1c(C)cc3c(c1O)C(=O)C1OC1C3=O)=CC2=O (stereo not drawn) : 20.6 µM
COc1cc(S(=O)(=O)N/N=C/c2cc(Br)c(O)c(OC)c2)c(OC)cc1NC(C)=O : > 100 µM
C/C=C/C(=O)[O-].N.N.N.N.N.[Co+3].[O-][Cl+3]([O-])([O-])[O-] : > 100 µM
COc1cc(C2(C)SCCCS2)c(I)c(OC)c1OC : > 100 µM
Cc1cc(S(=O)(=O)Nc2nc3cc(-c4ccsc4)sc3c(=O)n2N)c(S)cc1Cl : > 100 µM
COc1cccc2c1[C@]1(O)C(O)CCCC21 (stereo partly drawn) : > 100 µM
COc1cccc(C2CC(=O)c3cccn32)c1 (stereo not drawn) : > 100 µM
Cc1cc(Cl)ccc1NC(=O)CCCC(=O)C(C(=O)c1ccccc1)c1ccccc1 (stereo not drawn) : > 100 µM
N#Cc1ncc(N2C(=O)C3(CCC3)N(c3ccc(OC4CCNCC4)nc3)C2=S)cc1C(F)(F)F : 48.7 µM
O=C(Nc1cccc([N+](=O)[O-])c1)c1cc2ccccc2cc1O : 9.27 µM
Cc1nn2c(/C=C3\C(=O)Nc4ccccc43)c(C)nc2s1 : > 100 µM
Cc1[nH]n(-c2ccccc2)c(=O)c1C(=O)c1ccccc1 : > 25 µM
COc1cc(/C=C\c2cc(OC)c(OC)c(OC)c2)cc(NS(=O)(=O)c2cccc(Cl)c2)c1OC : > 100 µM
CCCCCCc1cn([C@H]2C[C@H](O)[C@@H](CO)O2)c(=O)[nH]c1=O : > 100 µM
O=c1/c(=C/c2ccc(-c3ccc(Cl)cc3Cl)o2)sc2n1[C@@H](c1ccc3c(c1)OCO3)C=C(c1cc(F)c(Cl)cc1Cl)N=2 : > 100 µM
Cc1nnc(CC#N)n1NC(=O)CC#N : > 100 µM
CN(C)C=Nc1nncc2n[nH]nc12 : > 100 µM
O=c1c(-c2ccc(O)cc2)coc2cc(O)cc(O)c12 : > 100 µM
CCOC(=O)c1cn(C)nc1N/C(C)=C\C(=O)c1ccccc1 : > 100 µM
COC(=O)c1c(C#C[Si](C)(C)C)c(C#C[Si](C)(C)C)c(C#C[Si](C)(C)C)c(C#C[Si](C)(C)C)c1C(=O)OC : > 100 µM
c1ccc(CNc2ncnc3n[nH]nc23)cc1 : > 100 µM
O=C(C=P(c1ccccc1)(c1ccccc1)c1ccccc1)c1ccc(-c2ccc(F)cc2F)cc1 : 13.9 µM
CC1(C)CC(=O)C(=CN2C(=O)CNC2=S)C(=O)C1 : > 100 µM
NC1CCCCC1N.O=S(=O)([O-])CCCN1CCN(CCO)CC1.O=S(=O)([O-])CCCN1CCN(CCO)CC1.[Pt+4] : > 100 µM
O=C(O)CCCc1ccc2c(c1)CC1(C2)Cc2ccc(CCCC(=O)O)cc2C1 : > 100 µM
CN(CCN(C)C(=O)CCn1ccc(=O)[nH]c1=O)C(=O)CCn1ccc(=O)[nH]c1=O : > 100 µM

* * *

- Test system: SF-295 CNS
- experiment_description: NCI tumour cell line growth inhibition, 48 h
outcome_measure: TGI

FC(F)(F)c1cc(NC2=NCCN=C(Nc3cc(C(F)(F)F)cc(C(F)(F)F)c3)SS2)cc(C(F)(F)F)c1 : 12.2 µM
CSc1ccccc1P(CCP(c1ccccc1SC)c1ccccc1SC)c1ccccc1SC : > 95.7 µM
C=C1C(=O)O[C@H]2C3C(=C(C)CC[C@@H]12)C(=O)[C@@H]1OC31C (stereo partly drawn) : 27.3 µM
CCCCCCCCCCCCCCCCNc1ccn(C2CC(OP(=O)(O)OCC3OC(n4cc(CC)c(=O)[nH]c4=O)CC3O)C(CO)O2)c(=O)n1 (stereo not drawn) : 34.5 µM
Cn1c(=O)c2[nH]c(CCC(=O)O)nc2n(C)c1=O : > 100 µM
C=CCn1c(=O)c2ccccc2[n+]2c(-c3cccc([N+](=O)[O-])c3)csc12 : > 100 µM
S=C(Nc1ccc2c(c1)Cc1ccccc1-2)Nc1ccc2c(c1)Cc1ccccc1-2 : > 100 µM
C[C@]12CC[C@H]3[C@@H](CCC4=C[C@@H](OC5OCC(OC6OC(CO)C(O)C(O)C6O)C(O)C5O)CC[C@@]43C=O)[C@@]1(O)CCC2C1=CC(=O)OC1 (stereo partly drawn) : 3.53 µM
O=C(NC/C=C/Br)NC1CCNc2ccccc21 (stereo not drawn) : > 100 µM
COc1cc(C2(C)SCCCS2)c(I)c(OC)c1OC : > 100 µM
COc1ccc(N2C(=O)/C(=C/c3ccc(N(CCC#N)CCC#N)cc3)N=C2c2ccccc2)c(OC)c1 : > 100 µM
Cn1c(=O)c2sc3cc4c(cc3c2c2ccccc21)sc1c(=O)n(C)c2ccccc2c14 : 42.6 µM
COc1ccc(N2C(=O)C(N3C(=O)C=CC3=O)C2C=O)cc1 (stereo not drawn) : > 100 µM
COc1cccc(C2CC(=O)c3cccn32)c1 (stereo not drawn) : > 100 µM
CC(=O)Nc1ccc(/C=C(\NC(=O)c2ccccc2)C(=O)NNS(=O)(=O)c2ccc(C)cc2)cc1 : > 100 µM
CCCC(=O)OC1CC(n2cc(F)c(=O)[nH]c2=O)OC1CO (stereo not drawn) : > 10 µM
CC1(C)N=C(N)N=C(N)N1c1ccc(OCCCOc2ccccc2)c(Cl)c1 : > 43.7 µM
Cc1ccc(SCC(O)=C2C(=O)CCCC2=O)cc1 : > 100 µM
O=C(O)CCCc1ccc2c(c1)CC1(C2)Cc2ccc(CCCC(=O)O)cc2C1 : > 100 µM
COc1cc(-c2[o+]c3cc(O)cc(OC4OC(CO)C(O)C(O)C4O)c3cc2OC2OC(CO)C(O)C(O)C2O)cc(OC)c1O (stereo not drawn) : > 100 µM
C=C(C)[C@@H]1CC[C@]2(C)[C@H](CC=C3[C@@H]4[C@H](C)[C@@H](C)CC[C@]4(CO)CC[C@]32C)[C@@]1(C)CCCN : 1.58 µM
NC(=S)N/N=C\c1nccc2c(C(F)(F)C(F)(F)C(F)(F)F)cccc12 : 1.7 µM
Oc1ccc2ccccc2c1OCc1nnc(CCCCCCCCc2nnc(COc3c(O)ccc4ccccc34)o2)o1 : > 100 µM
CC(C)(O)CCC(O)C(C)(O)C1CCC2(O)C3=CC(=O)C4(O)CC(O)C(O)CC4(C)C3CCC12C (stereo not drawn) (tested in a mixture with another compound) : > 100 µM
CCOC(=O)c1c(-c2ccc(OC)c(O)c2)c(C#N)c(=S)n(C2OC(CO)C(O)C(O)C2O)c1-c1ccccc1 (stereo not drawn) : > 100 µM
Cc1ccc(C)c2c1CCc1cc3ccccc3nc1-2 : > 100 µM
COc1cc(/C=C/c2cc(/C=C/c3ccc(O)c(OC)c3)[nH]c(=O)n2)ccc1O : 9.87 µM
CN(C)c1ccc(N=C(C#N)c2nc(N)nc(N3CCN(c4ccccc4)CC3)n2)cc1 : > 43.7 µM
COC(=O)/C=C\C(C#N)(C#N)N=Cc1ccsc1 : 27.5 µM
O=C(c1ccccc1)c1ccccc1C(=O)c1ccccc1 : > 100 µM
O=c1/c(=C/c2ccc(-c3ccc(Cl)cc3Cl)o2)sc2n1[C@@H](c1ccc3c(c1)OCO3)C=C(c1cc(F)c(Cl)cc1Cl)N=2 : > 100 µM
CN/N=C(\C(=O)Nc1ccc([N+](=O)[O-])cc1[N+](=O)[O-])C1NC(=O)NC1=O (stereo not drawn) : > 100 µM
C/C(=C\CNc1nc(Cl)nc2nc[nH]c12)CO : > 100 µM
O=C1C2=C(c3ccccc31)C(c1ccc(F)cc1)N1C(=O)CCSC1=N2 (stereo not drawn) : > 100 µM
CCCCCCCCC[n+]1cccc(C2C(C(=O)OCC)=C(C)NC(C)=C2C(=O)OCC)c1 : 33.9 µM
CCCCCCc1cn([C@H]2C[C@H](O)[C@@H](CO)O2)c(=O)[nH]c1=O : > 31.6 µM
Cn1c(O)c(N=NC(N)=S)c2ccccc21 : > 100 µM
CCCCN(CCCC)C(=O)C(=O)CC(=O)/C=C/c1ccccc1 : > 100 µM
